Reported normalized growth values are given for each entry in this list.
# measurement-protocol: chemical genetic growth profiling, strain panel (AID 1159580);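 further: tested at 20 µM; growth read once vehicle control cultures reached saturation at 30 °C; 1 = growth at the plate median or of vehicle wells; lower values mean less growth of the strain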
# condition: S. cerevisiae deletion strains, growth OD, locus YLR058C, strain SHM2, active compounds read low
The campaign covered roughly 5,500 compounds. About 2,000 (36%) were called active. Roughly 18% stayed inconclusive and do not appear here. Some of the results follow.
Simply state the number, no unit and no words.

Reference set (10 entries):
O=C(O)CN(CC(=O)O)Cc1cc2c(-c3ccccc3C(=O)O)c3cc(CN(CC(=O)O)CC(=O)O)c(=O)cc-3oc2cc1O    1
CC1(C)O[C@H]2[C@H](O)C[C@](O)(C(N)=O)C[C@H]2O1    1.04
CC(=O)OC1CCC2(C)C(=CC=C3C2CCC2(C)C3CCC2C(C)/C=C/C(C)C(C)C)C1(C)C (centres undefined)    1.01
Cc1ccc(Cl)c(Nc2ccccc2C(=O)O)c1Cl    0.895
CC(C)COCC(CN(Cc1ccccc1)c1ccccc1)N1CCCC1 (centres undefined)    0.858
CC(=O)OCC(OC(C)=O)C(OC(C)=O)C(OC(C)=O)C(OC(C)=O)C(COC(C)=O)OC(C)=O (centres undefined)    1.02
CC(=O)OCC(COC(C)=O)OC(C)=O    1.01
CC(=O)Oc1c(C)cccc1C(=O)O    1.01
Cc1ccc(C)c(OCCCC(C)(C)C(=O)O)c1    0.956
Cc1cccc(Nc2ccccc2C(=O)O)c1C    0.906

Fill blank: measured normalized growth of the compound Oc1ccc(Cl)cc1Cc1cc(Cl)ccc1O is ____. 0.0611

And what about the compound CC(C)(C)CC(C)(C)c1ccc(O)c(Cc2ccc(Cl)cc2Cl)c1 ? 1.01

And what about the compound CC(C)C(C)/C=C/C(C)C1CCC2C3=CC=C4CC(O)CCC4(C)C3CCC21C (centres undefined) ? 0.946

And what about the compound NC(=O)c1cccc(N)c1 ? 1.01

And what about the compound C=C1C(=O)O[C@@H]2C3O[C@]3(C)CC/C=C(\C)CC[C@@H]12 (some centres undefined) ? 0.934

And what about the compound COC(=O)C1=CCCN(C)C1 ? 0.973

And what about the compound Cc1cccc(C(=O)O)c1O ? 1.02

And what about the compound CCCCN1CCCCC1C(=O)Nc1c(C)cccc1C (centres undefined) ? 1.01

And what about the compound C#CCCCCCCCCCCCC(O)CC(O)CO (centres undefined) ? 1

And what about the compound COC(=O)C(C)c1ccc(C(=O)c2cccs2)cc1 (centres undefined) ? 0.989

And what about the compound CC(C)C(C)/C=C/C(C)[C@H]1CCC2C3=CCC4CC(=O)CC[C@]4(C)C3CC[C@@]21C (some centres undefined) ? 1.02

Source: PubChem BioAssay AID1159580
